Target: T1, recombinant human activated Factor VII (FVIIa) (human, UniProt P08709 61-212; P08709 213-466, ten glutamate residues of the Gla domain may be gamma-carboxylated)
T1 construct: chains tethered by a disulfide bond; also called Factor VIIa; rFVIIa
T1 sequence 1: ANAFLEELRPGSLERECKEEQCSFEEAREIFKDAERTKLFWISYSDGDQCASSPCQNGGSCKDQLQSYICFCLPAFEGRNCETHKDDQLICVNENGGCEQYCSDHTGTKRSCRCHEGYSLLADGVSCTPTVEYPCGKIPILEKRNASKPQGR
T1 sequence 2: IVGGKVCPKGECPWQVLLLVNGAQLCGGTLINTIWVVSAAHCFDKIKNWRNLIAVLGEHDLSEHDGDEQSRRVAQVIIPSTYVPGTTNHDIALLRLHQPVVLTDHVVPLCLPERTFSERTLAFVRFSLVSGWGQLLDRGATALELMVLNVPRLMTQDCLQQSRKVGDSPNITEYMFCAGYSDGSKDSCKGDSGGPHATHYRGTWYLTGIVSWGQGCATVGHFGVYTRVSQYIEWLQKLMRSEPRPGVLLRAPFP
Experiment: BLI (Fortebio)
experimental-readout: Kd (nM)
Provide only the numeric value, understood in nM.

binder: VH SEQ ID NO 546 / VL SEQ ID NO 334 (antibody, IgG4, V domains shown, humanized 11F2; IgG4 S228P/kappa) VH: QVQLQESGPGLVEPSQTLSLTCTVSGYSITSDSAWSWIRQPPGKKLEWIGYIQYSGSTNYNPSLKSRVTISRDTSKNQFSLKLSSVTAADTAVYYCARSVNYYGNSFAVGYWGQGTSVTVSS VL: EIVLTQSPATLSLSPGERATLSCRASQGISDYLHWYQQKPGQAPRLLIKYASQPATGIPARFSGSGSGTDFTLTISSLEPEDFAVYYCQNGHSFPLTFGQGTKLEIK
endpoint-unit: nM
Kd: 1.1
--
binder: VH SEQ ID NO 522 / VL SEQ ID NO 470 (antibody, IgG4, V domains shown, humanized 11F2; IgG4 S228P/kappa) VH: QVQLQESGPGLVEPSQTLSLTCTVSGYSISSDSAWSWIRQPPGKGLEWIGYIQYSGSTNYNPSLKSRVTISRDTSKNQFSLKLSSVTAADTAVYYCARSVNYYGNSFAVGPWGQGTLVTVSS VL: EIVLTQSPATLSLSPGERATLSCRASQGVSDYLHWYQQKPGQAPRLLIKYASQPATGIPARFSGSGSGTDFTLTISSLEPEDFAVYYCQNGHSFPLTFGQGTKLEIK
endpoint-unit: nM
Kd: 0.96
--
binder: VH SEQ ID NO 530 / VL SEQ ID NO 422 (antibody, IgG4, V domains shown, humanized 11F2; IgG4 S228P/kappa) VH: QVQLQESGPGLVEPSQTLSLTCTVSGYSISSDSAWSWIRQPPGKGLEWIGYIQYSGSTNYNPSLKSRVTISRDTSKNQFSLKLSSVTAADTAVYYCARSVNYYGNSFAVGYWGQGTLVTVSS VL: EIVLTQSPATLSLSPGERATLSCRASQGVSDYLAWYQQKPGQAPRLLIKYASQPATGIPARFSGSGSGTDFTLTISSLEPEDFAVYYCQQGHSFPLTFGQGTKLEIK
endpoint-unit: nM
Kd: 26
--
binder: VH SEQ ID NO 546 / VL SEQ ID NO 366 (antibody, IgG4, V domains shown, humanized 11F2; IgG4 S228P/kappa) VH: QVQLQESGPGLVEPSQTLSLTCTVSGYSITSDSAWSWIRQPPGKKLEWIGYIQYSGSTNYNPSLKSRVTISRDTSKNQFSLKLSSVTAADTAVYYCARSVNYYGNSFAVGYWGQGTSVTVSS VL: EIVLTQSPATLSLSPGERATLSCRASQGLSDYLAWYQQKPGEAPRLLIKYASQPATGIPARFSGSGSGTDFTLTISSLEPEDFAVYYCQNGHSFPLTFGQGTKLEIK
endpoint-unit: nM
Kd: 5.7

Noted for VH SEQ ID NO 538 / VL SEQ ID NO 438 (antibody, IgG4, V domains shown, humanized 11F2; IgG4 S228P/kappa) VH: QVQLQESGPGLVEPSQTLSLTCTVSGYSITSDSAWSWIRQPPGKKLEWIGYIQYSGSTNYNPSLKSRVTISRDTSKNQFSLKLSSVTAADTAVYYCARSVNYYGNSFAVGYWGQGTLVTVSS VL: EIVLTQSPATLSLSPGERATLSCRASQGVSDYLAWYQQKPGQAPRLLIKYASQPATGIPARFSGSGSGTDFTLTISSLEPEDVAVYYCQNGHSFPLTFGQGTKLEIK : its Kd reads 8.3
